What IC50 was measured for each of the following?
- Test system: HCT-15
- assay: Antiproliferative activity against human HCT15 cells after 72 hrs by CCK-8 assay
- Format: functional, cell-based
- applied conditions: HCT-15, 72 h
Structures can show the parent of a compound that is named as a salt.
Quick reminder: number only, in nM, skip the unit.

Query: Endpoint output: IC50 of Oc1cccc(-c2cc(-c3cccc(Cl)c3)c3c(n2)-c2ccccc2OC3)c1 . Value?
Result: 1230

Query: Endpoint output: IC50 of Oc1cccc(-c2cc(-c3ccccc3Cl)nc3c2COc2ccccc2-3)c1 . Value?
Result: 870

Query: Endpoint output: IC50 of COc1cc([C@@H]2c3cc4c(cc3[C@@H](O[C@@H]3O[C@@H]5CO[C@@H](C)O[C@H]5[C@H](O)[C@H]3O)[C@H]3COC(=O)[C@H]23)OCO4)cc(OC)c1O [ETOPOSIDE] . Value?
Result: 2450

Query: Endpoint output: IC50 of Oc1ccccc1-c1cc(-c2ccc(Cl)cc2)nc2c1COc1ccccc1-2 . Value?
Result: 1660

Query: Endpoint output: IC50 of Oc1cccc(-c2cc(-c3ccc(Cl)cc3)c3c(n2)-c2ccccc2OC3)c1 . Value?
Result: 4570

Query: Endpoint output: IC50 of Oc1ccc(-c2cc(-c3ccc(Cl)cc3)nc3c2COc2ccccc2-3)cc1 . Value?
Result: 1830

Query: Endpoint output: IC50 of Oc1ccc(-c2cc(-c3ccccc3Cl)nc3c2COc2ccccc2-3)cc1 . Value?
Result: 1740

Query: Endpoint output: IC50 of COc1cccc2c1C(=O)c1c(O)c3c(c(O)c1C2=O)C[C@@](O)(C(=O)CO)C[C@@H]3O[C@H]1C[C@H](N)[C@H](O)[C@H](C)O1 [DOXORUBICIN HYDROCHLORIDE] . Value?
Result: 730

Query: Endpoint output: IC50 of Oc1ccc(-c2cc(-c3ccc(Cl)cc3)c3c(n2)-c2ccccc2OC3)cc1 . Value?
Result: 1850

Query: Endpoint output: IC50 of Oc1ccc(-c2cc(-c3ccccc3Cl)c3c(n2)-c2ccccc2OC3)cc1 . Value?
Result: 4720

###

What inhibition was measured for each of the following?
- target under test: DNA topoisomerase 2-alpha (Homo sapiens) (UniProt P11388)
- Sequence (P11388 whole entry): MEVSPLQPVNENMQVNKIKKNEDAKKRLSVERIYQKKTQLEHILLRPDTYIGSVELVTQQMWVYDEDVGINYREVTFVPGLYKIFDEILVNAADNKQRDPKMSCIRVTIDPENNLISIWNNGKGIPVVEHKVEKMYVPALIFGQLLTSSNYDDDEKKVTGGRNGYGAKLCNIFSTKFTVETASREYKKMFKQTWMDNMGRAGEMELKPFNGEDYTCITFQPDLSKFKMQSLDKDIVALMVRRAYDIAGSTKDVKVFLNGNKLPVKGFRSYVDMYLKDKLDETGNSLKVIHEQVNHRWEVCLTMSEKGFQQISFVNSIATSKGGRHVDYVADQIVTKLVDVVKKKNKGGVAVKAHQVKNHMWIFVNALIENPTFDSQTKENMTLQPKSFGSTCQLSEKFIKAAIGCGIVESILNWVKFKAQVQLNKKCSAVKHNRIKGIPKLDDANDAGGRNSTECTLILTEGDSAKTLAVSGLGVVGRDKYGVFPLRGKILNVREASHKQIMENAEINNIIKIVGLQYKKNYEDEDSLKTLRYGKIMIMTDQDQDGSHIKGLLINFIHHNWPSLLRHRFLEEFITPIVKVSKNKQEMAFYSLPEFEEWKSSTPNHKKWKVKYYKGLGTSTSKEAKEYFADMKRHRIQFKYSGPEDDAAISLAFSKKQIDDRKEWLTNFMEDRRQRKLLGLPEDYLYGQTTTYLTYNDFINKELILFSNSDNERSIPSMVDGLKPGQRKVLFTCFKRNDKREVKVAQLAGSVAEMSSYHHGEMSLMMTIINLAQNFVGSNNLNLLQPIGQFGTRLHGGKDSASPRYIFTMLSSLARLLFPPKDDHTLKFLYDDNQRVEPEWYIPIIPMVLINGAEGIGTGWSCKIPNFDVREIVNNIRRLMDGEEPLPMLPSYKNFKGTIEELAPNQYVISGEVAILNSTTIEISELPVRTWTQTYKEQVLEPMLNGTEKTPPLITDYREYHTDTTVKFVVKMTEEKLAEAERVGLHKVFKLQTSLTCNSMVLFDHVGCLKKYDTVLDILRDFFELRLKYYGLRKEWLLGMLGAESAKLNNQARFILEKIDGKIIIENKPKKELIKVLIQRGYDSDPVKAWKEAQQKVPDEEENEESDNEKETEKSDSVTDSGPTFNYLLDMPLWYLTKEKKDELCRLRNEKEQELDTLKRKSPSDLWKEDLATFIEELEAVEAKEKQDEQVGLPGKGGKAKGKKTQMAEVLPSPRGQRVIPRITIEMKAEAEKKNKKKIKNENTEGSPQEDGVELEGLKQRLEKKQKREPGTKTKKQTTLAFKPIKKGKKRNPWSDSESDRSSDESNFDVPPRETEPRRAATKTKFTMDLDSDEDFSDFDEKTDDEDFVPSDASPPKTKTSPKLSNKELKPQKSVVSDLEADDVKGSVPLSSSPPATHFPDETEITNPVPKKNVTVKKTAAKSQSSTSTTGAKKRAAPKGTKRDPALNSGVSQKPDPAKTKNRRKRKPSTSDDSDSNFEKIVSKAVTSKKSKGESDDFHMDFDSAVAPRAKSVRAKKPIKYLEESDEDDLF
- assay: Inhibition of recombinant human topoisomerase 2alpha assessed as decrease in relaxation of supercoiled pBR322 DNA at 20 uM after 30 mins by agarose gel electrophoresis relative to control

Query: Endpoint output: inhibition of Oc1ccccc1-c1cc(-c2ccccc2Cl)c2c(n1)-c1ccccc1OC2 . Value?
Result: 45.5%

Query: Endpoint output: inhibition of Oc1cccc(-c2cc(-c3ccc(Cl)cc3)c3c(n2)-c2ccccc2OC3)c1 . Value?
Result: 4.7%

Query: Endpoint output: inhibition of Oc1ccccc1-c1cc(-c2ccccc2Cl)nc2c1COc1ccccc1-2 . Value?
Result: 47.3%

Query: Endpoint output: inhibition of Oc1ccc(-c2cc(-c3ccccc3Cl)nc3c2COc2ccccc2-3)cc1 . Value?
Result: 74.5%

Query: Endpoint output: inhibition of Oc1ccc(-c2cc(-c3ccccc3Cl)c3c(n2)-c2ccccc2OC3)cc1 . Value?
Result: 48.1%

Query: Endpoint output: inhibition of Oc1cccc(-c2cc(-c3cccc(Cl)c3)nc3c2COc2ccccc2-3)c1 . Value?
Result: 63.7%

###

- target under test: DNA topoisomerase 1 (Homo sapiens)
- assay: Inhibition of recombinant human topoisomerase 1 assessed as decrease in relaxation of supercoiled pBR322 DNA at 100 uM after 30 mins by agarose gel electrophoresis relative to control
The source made the active and inactive calls. No cut-off for these calls is given here.
endpoint: inhibition

// solved cases for inhibition follow
Query: Endpoint output: inhibition of Oc1ccccc1-c1cc(-c2ccc(Cl)cc2)nc2c1COc1ccccc1-2 . Value?
Result: 7.6%

Query: Endpoint output: inhibition of Oc1ccccc1-c1cc(-c2ccccc2Cl)nc2c1COc1ccccc1-2 . Value?
Result: 4.7%

Query: Endpoint output: inhibition of Oc1cccc(-c2cc(-c3cccc(Cl)c3)c3c(n2)-c2ccccc2OC3)c1 . Value?
Result: 12%

Query: Endpoint output: inhibition of Oc1ccccc1-c1cc(-c2cccc(Cl)c2)c2c(n1)-c1ccccc1OC2 . Value?
Result: 21.1%

Query: Endpoint output: inhibition of Oc1ccc(-c2cc(-c3cccc(Cl)c3)nc3c2COc2ccccc2-3)cc1 . Value?
Result: inactive

Further cases:
Query: Endpoint output: inhibition of Oc1ccccc1-c1cc(-c2cccc(Cl)c2)nc2c1COc1ccccc1-2 . Value?
Result: 4.4%

Query: Endpoint output: inhibition of Oc1ccc(-c2cc(-c3ccccc3Cl)c3c(n2)-c2ccccc2OC3)cc1 . Value?
Result: 56.1%

Query: Endpoint output: inhibition of Oc1cccc(-c2cc(-c3ccccc3Cl)nc3c2COc2ccccc2-3)c1 . Value?
Result: 79.1%

Query: Endpoint output: inhibition of Oc1ccc(-c2cc(-c3ccc(Cl)cc3)c3c(n2)-c2ccccc2OC3)cc1 . Value?
Result: 38.5%

Query: Endpoint output: inhibition of Oc1ccccc1-c1cc(-c2ccccc2Cl)c2c(n1)-c1ccccc1OC2 . Value?
Result: inactive

###

- target under test: DNA topoisomerase 2-alpha (Homo sapiens) (UniProt P11388)
- assay: Inhibition of recombinant human topoisomerase 2alpha assessed as decrease in relaxation of supercoiled pBR322 DNA at 100 uM after 30 mins by agarose gel electrophoresis relative to control
What inhibition was measured for each of the following?
Quick reminder: number only, in %, skip the unit.

Query: Endpoint output: inhibition of Oc1ccccc1-c1cc(-c2ccccc2Cl)nc2c1COc1ccccc1-2 . Value?
Result: 79.1

Query: Endpoint output: inhibition of Oc1cccc(-c2cc(-c3ccc(Cl)cc3)nc3c2COc2ccccc2-3)c1 . Value?
Result: 71.3

Query: Endpoint output: inhibition of Oc1cccc(-c2cc(-c3cccc(Cl)c3)c3c(n2)-c2ccccc2OC3)c1 . Value?
Result: 63.6

Query: Endpoint output: inhibition of Oc1ccc(-c2cc(-c3ccccc3Cl)c3c(n2)-c2ccccc2OC3)cc1 . Value?
Result: 63.5

Query: Endpoint output: inhibition of Oc1ccc(-c2cc(-c3ccccc3Cl)nc3c2COc2ccccc2-3)cc1 . Value?
Result: 82.7

Query: Endpoint output: inhibition of Oc1ccccc1-c1cc(-c2cccc(Cl)c2)c2c(n1)-c1ccccc1OC2 . Value?
Result: 18.9

Query: Endpoint output: inhibition of Oc1ccccc1-c1cc(-c2cccc(Cl)c2)nc2c1COc1ccccc1-2 . Value?
Result: 75.1

Query: Endpoint output: inhibition of Oc1cccc(-c2cc(-c3ccc(Cl)cc3)c3c(n2)-c2ccccc2OC3)c1 . Value?
Result: 66.7

Query: Endpoint output: inhibition of Oc1ccccc1-c1cc(-c2ccccc2Cl)c2c(n1)-c1ccccc1OC2 . Value?
Result: 78.1

Query: Endpoint output: inhibition of Oc1cccc(-c2cc(-c3ccccc3Cl)c3c(n2)-c2ccccc2OC3)c1 . Value?
Result: 91.7

###

- target under test: DNA topoisomerase 2-alpha (Homo sapiens) (UniProt P11388)
- assay: Inhibition of recombinant human topoisomerase 2alpha assessed as decrease in relaxation of supercoiled pBR322 DNA at 20 uM after 30 mins by agarose gel electrophoresis relative to etoposide
// class assignment uses fold change (FC) with these ranges: label 0 = under 0.6, label 1 = from 0.6 up to 0.9, label 2 = 0.9 and over

Query: Which bin should I file Oc1ccccc1-c1cc(-c2ccccc2Cl)nc2c1oc1ccccc12 under?
Result: label 1

Query: Which bin should I file Oc1ccc(-c2cc(-c3cccc(Cl)c3)nc3c2COc2ccccc2-3)cc1 under?
Result: label 2

Query: Which bin should I file Oc1cccc(-c2cc(-c3cccc(Cl)c3)nc3c2oc2ccccc23)c1 under?
Result: label 1

Query: Which bin should I file Oc1ccc(-c2cc(-c3ccccc3Cl)nc3c2COc2ccccc2-3)cc1 under?
Result: label 2

Query: Which bin should I file Oc1ccc(-c2cc(-c3ccc(Cl)cc3)nc3c2oc2ccccc23)cc1 under?
Result: label 2

Query: Which bin should I file Oc1ccc(-c2cc(-c3ccccc3Cl)nc3c2oc2ccccc23)cc1 under?
Result: label 0

Query: Which bin should I file Oc1ccc(-c2cc(-c3cccc(Cl)c3)nc3c2oc2ccccc23)cc1 under?
Result: label 1

Query: Which bin should I file Oc1cccc(-c2cc(-c3ccccc3Cl)nc3c2oc2ccccc23)c1 under?
Result: label 0

Query: Which bin should I file Oc1cccc(-c2cc(-c3ccc(Cl)cc3)nc3c2oc2ccccc23)c1 under?
Result: label 0

###

- target under test: DNA topoisomerase 2-alpha (Homo sapiens) (UniProt P11388)
- assay: Inhibition of recombinant human topoisomerase 2alpha assessed as decrease in relaxation of supercoiled pBR322 DNA at 100 uM after 30 mins by agarose gel electrophoresis relative to control
Please mark 1.0 if the recorded inhibition is equal to or greater than 90%, and 0.0 if it falls below.

Query: Check if inhibition >= 90% (inclusive). Item: Oc1ccc(-c2cc(-c3cccc(Cl)c3)nc3c2COc2ccccc2-3)cc1
Result: 1.0

Query: Check if inhibition >= 90% (inclusive). Item: Oc1ccc(-c2cc(-c3ccc(Cl)cc3)c3c(n2)-c2ccccc2OC3)cc1
Result: 1.0

Query: Check if inhibition >= 90% (inclusive). Item: Oc1ccccc1-c1cc(-c2ccc(Cl)cc2)c2c(n1)-c1ccccc1OC2
Result: 0.0

Query: Check if inhibition >= 90% (inclusive). Item: Oc1cccc(-c2cc(-c3cccc(Cl)c3)nc3c2COc2ccccc2-3)c1
Result: 0.0

Query: Check if inhibition >= 90% (inclusive). Item: Oc1ccc(-c2cc(-c3cccc(Cl)c3)c3c(n2)-c2ccccc2OC3)cc1
Result: 0.0
